experimental_details: SGF digest of 168 nutritive polypeptide library, intact protein by LC-MS/MS
Type: in vitro ADME
test_context: 168 nutritive polypeptide library SGF digest, LC-MS/MS spectral counts
So I've got a bunch of molecules here, and I need their % Intact Protein at 10 min values.
Give the value in % but do not write % after it.

Qu. Which % Intact Protein at 10 min is reported for this molecule? SEQID-00622: protein of the 168 nutritive polypeptide library (protein, listed as Oryza sativa, source: /note="subsp. japonica", protein of the 168 nutritive polypeptide library) MASEGAVSPAFAYTVVYVKDVAKSAAFYSAAFGYTVRRLDQSHKWAELESGTTTIAFTPLHQRETDALTGAVQLPDSAGERGPVEICFDYADVDAAYRRAVDSGAVPVSPPEQKSWGQKVGYVRDIDGIIVRMGSHVRA
Ans. 43.6

Qu. Which % Intact Protein at 10 min is reported for this molecule? SEQID-00610: protein of the 168 nutritive polypeptide library (protein, listed as Saccharomyces cerevisiae, source: /note="strain ATCC 204508 / S288c", protein of the 168 nutritive polypeptide library) MVLEATVLVIDNSEYSRNGDFPRTRFEAQIDSVEFIFQAKRNSNPENTVGLISGAGANPRVLSTFTAEFGKILAGLHDTQIEGKLHMATALQIAQLTLKHRQNKVQHQRIVAFVCSPISDSRDELIRLAKTLKKNNVAVDIINFGEIEQNTELLDEFIAAVNNPQEETSHLLTVTPGPRLLYENIASSPIILEEGSSGMGAFGGSGGDSDANGTFMDFGVDPSMDPELAMALRLSMEEEQQRQERLRQQQQQQDQPEQSEQPEQHQDK
Ans. 3.3
